tested on: SETVIR (Setaria viridis (L.) Beauv, green foxtail); experiment: Weed control test, foliage treatment (Test Example 1, Table 7); type: in vivo; conditions: Setaria viridis, foliar, 0.2 kg/ha, read-out: Plant damage (herbicidal activity), visually evaluated, SETVIR
Kindly supply the reported pest or weed control at 200 g/ha values for the records listed here.
Give bare numbers, in %.

Past entries and their recorded results:
| Molecule | Unit Info | pest or weed control at 200 g/ha |
| --- | --- | --- |
| C[C@@H](Oc1ccc(Oc2ccc(C#N)cc2F)cc1)C(=O)Nc1nc2ccccc2s1 [Example 19] | % | 10 |
| COc1ccc2nc(NC(=O)[C@@H](C)Oc3ccc(Oc4nc5ccc(Cl)cc5o4)cc3)sc2c1 [Example 13] | % | 100 |
| C[C@@H](Oc1ccc(C(F)=C(c2ccc(F)cc2)C(F)(F)F)cc1)C(=O)Nc1ccccc1F [Example 40] | % | 20 |

Indicate the recorded pest or weed control at 200 g/ha value for this molecule: C[C@@H](Oc1ccc(Oc2nc3ccc(Cl)cc3o2)cc1)C(=O)Nc1nc2ccccc2s1 [Example 5]
100

###

Would you mind telling me the reported pest or weed control at 200 g/ha of each entry?
test system: ARTHIS (Arthraxon hispidus (Thunb.) Makino, creek grass); assay: Weed control test, foliage treatment (Test Example 1, Table 7); format: in vivo; conditions: Arthraxon hispidus, foliar, 0.2 kg/ha, read-out: Plant damage (herbicidal activity), visually evaluated, ARTHIS
Numbers only, in %.

The examples below pair each entry with its known result.
| Molecule | Tested System | pest or weed control at 200 g/ha (%) |
| --- | --- | --- |
| C[C@@H](Oc1ccc(Oc2ccc(C#N)cc2F)cc1)C(=O)Nc1cnccn1 [Example 35] | ARTHIS (Arthraxon hispidus (Thunb.) Makino, creek grass) | 30 |
| C[C@@H](Oc1ccc(Oc2ccc(C#N)cc2F)cc1)C(=O)Nc1nc2ccc(Cl)cc2s1 [Example 21] | ARTHIS (Arthraxon hispidus (Thunb.) Makino, creek grass) | 70 |
| C[C@@H](Oc1ccc(Oc2nc3ccc(Cl)cc3o2)cc1)C(=O)N(C)c1nc2ccccc2s1 [Example 6] | ARTHIS (Arthraxon hispidus (Thunb.) Makino, creek grass) | 50 |
| C[C@@H](Oc1ccc(OC(F)=Cc2ccc(F)cc2)cc1)C(=O)Nc1nc2cc(Cl)ccc2o1 [Example 52] | ARTHIS (Arthraxon hispidus (Thunb.) Makino, creek grass) | 0 |

Please report pest or weed control at 200 g/ha for every entry that follows.
1. Cc1ccc2nc(N(C)C(=O)[C@@H](C)Oc3ccc(Oc4ccc(C#N)cc4F)cc3)sc2c1 [Example 26]
2. C[C@@H](Oc1ccc(Oc2ccc(C#N)cc2F)cc1)C(=O)Nc1nccs1 [Example 31]
3. C[C@@H](Oc1ccc(Oc2ccc(C#N)cc2F)cc1)C(=O)Nc1nc2ccccc2s1 [Example 19]
4. COc1ccc2nc(N(C)C(=O)[C@@H](C)Oc3ccc(Oc4nc5ccc(Cl)cc5o4)cc3)sc2c1 [Example 14]

1. 0
2. 70
3. 10
4. 50

###

For each of the compounds below, state its pest or weed control at 200 g/ha.
Tested on: SORBI (Andropogon sorghum, common sorgum)
Assay: Weed control test, foliage treatment (Test Example 1, Table 7)
Format: in vivo
Details: Sorghum bicolor, foliar, 0.2 kg/ha, read-out: Plant damage (herbicidal activity), visually evaluated, SORBI
Text: Seeds of rice, wheat, soy bean, barley, corn, common sorgum, barnyard grass, large crabgrass, creek grass, green foxtail and fall panicum were placed in sandy loam in 600 cm^2 pots and covered with soil. […] The plant damage at 10 days and 20 days after the foliage treatment was visually evaluated from the level of 1 to 100% by comparison with the untreated control: […]
Param answer (str): number followed by unit.

| Smiles String | Data Value |
| --- | --- |
| COc1ccc2nc(NC(=O)[C@@H](C)Oc3ccc(Oc4nc5ccc(Cl)cc5o4)cc3)sc2c1 | 100% |
| Cc1ccc2nc(N(C)C(=O)[C@@H](C)Oc3ccc(Oc4ccc(C#N)cc4F)cc3)sc2c1 | 35% |

Report pest or weed control at 200 g/ha for every entry below.
1. C[C@@H](Oc1ccc(Oc2nc3ccc(Cl)cc3o2)cc1)C(=O)Nc1nc2cc(Cl)ccc2o1
2. C[C@@H](Oc1ccc(C(F)=C(c2ccc(F)cc2)C(F)(F)F)cc1)C(=O)Nc1ccccc1F

1: 100%; 2: 50%

Where do the numbers come from? From patent US8293774B2.
